assay_system: Cytochrome P450 3A4 (Homo sapiens) (UniProt P08684)
Sequence (P08684 whole entry, looked up): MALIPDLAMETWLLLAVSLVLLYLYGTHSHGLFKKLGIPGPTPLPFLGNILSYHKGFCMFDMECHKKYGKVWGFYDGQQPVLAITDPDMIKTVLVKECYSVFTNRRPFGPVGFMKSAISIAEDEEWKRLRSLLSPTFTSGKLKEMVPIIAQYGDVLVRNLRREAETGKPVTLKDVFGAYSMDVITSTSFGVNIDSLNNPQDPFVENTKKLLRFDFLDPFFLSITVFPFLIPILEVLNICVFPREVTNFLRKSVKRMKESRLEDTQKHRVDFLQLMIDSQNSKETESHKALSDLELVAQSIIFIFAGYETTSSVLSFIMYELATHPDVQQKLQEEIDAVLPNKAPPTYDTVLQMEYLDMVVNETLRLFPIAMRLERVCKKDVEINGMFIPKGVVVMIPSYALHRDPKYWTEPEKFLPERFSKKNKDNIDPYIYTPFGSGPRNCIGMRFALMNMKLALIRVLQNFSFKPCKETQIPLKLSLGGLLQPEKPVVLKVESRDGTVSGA
assay_remarks: qHTS Assay for Inhibitors and Substrates of Cytochrome P450 3A4 (AID 884); also: nearly all actives have a fitted effect of over 50% in size
condition_notes: recombinant CYP3A4, Luciferin-PPXE luminescence; series mostly up to 57.1 µM
Experimental: NIH Molecular Libraries Screening Centers Network [MLSCN] NIH Chemical Genomics Center [NCGC] The P450 gene superfamily is involved in the metabolism and clearance of xenobiotics. […] The luciferin is then measured by luminescence after the addition of a luciferase detection reagent. […] Inhibitors and some substrates limit the production of luciferin, and decrease measured luminescence. […]
Inconclusive results are not listed. The source made the active and inactive calls. Calls follow the shape of the dose curve; as a rule, active = well fitted inhibition curve with a large enough effect; inconclusive = small, poorly fitted or top-dose-only effect; inactive = no such curve, though single readings can be large or run the other way.
Valid outcomes are listed here; reply with one: 1 (active), -1 (inactive)

Q) Assay result, entry `C[C@]1(O)CC[C@H]2[C@@H]3CCC4=CC(=O)CC[C@]4(C)[C@@]3(F)[C@@H](O)C[C@@]21C` — outcome?
A) -1

Q) Assay result, entry `CC(C)NC(C)C` — outcome?
A) -1

Q) Assay result, entry `NCCc1ccc(O)cc1` — outcome?
A) -1

Q) Assay result, entry `CCCCCCNC(=O)n1cc(F)c(=O)[nH]c1=O` — outcome?
A) 1

Q) Assay result, entry `c1ccc2c(c1)sc1ccccc12` — outcome?
A) -1

Q) Assay result, entry `O=C(O)CCCc1ccc(N(CCCl)CCCl)cc1` — outcome?
A) -1

Q) Assay result, entry `CCC(C)(C)c1ccc(O)cc1` — outcome?
A) -1

Q) Assay result, entry O=P1(N(CCCl)CCCl)NCCCO1 (stereo unspecified) — outcome?
A) -1

Q) Assay result, entry `O=C1c2ccccc2C(=O)c2ccccc21` — outcome?
A) -1

Q) Assay result, entry `CCCC(C)(COC(N)=O)COC(N)=O` — outcome?
A) -1

Q) Assay result, entry NC(=O)CS(=O)C(c1ccccc1)c1ccccc1 (stereo unspecified) — outcome?
A) -1

Q) Assay result, entry `Clc1ccc(C(c2ccc(Cl)cc2)C(Cl)(Cl)Cl)cc1` — outcome?
A) -1

Q) Assay result, entry CC(NC(C)(C)C)C(=O)c1cccc(Cl)c1 (stereo unspecified) — outcome?
A) -1

Q) Assay result, entry `CNC(C)(C)Cc1ccccc1` — outcome?
A) -1

Q) Assay result, entry `Oc1ccc(Cl)cc1` — outcome?
A) -1

Q) Assay result, entry `COc1cc(OC)c(OC)cc1C=O` — outcome?
A) -1

====

condition_notes: Ebola virus entry assay, blue channel (ratio component)
Results with a measured potency or affinity are listed apart. The source made the active and inactive calls.
recorded_metric: outcome

{"compound": "CC(C)(C)NC[C@H](O)COc1nsnc1N1CCOCC1", "readout_value": "inactive"}
{"compound": "C[C@@H]1C[C@H]2[C@@H]3C[C@H](F)C4=CC(=O)C=C[C@]4(C)[C@@]3(F)[C@@H](O)C[C@]2(C)[C@@]1(O)C(=O)CO", "readout_value": "inactive"}
{"compound": "O=C(O)c1[nH]n(-c2ccc(S(=O)(=O)O)cc2)c(=O)c1N=Nc1ccc(S(=O)(=O)O)cc1", "readout_value": "inactive"}
{"compound": "CCCC(CCC)(C(=O)OCC)C(=O)OCC", "readout_value": "inactive"}

Q) Supply outcome value. Item: COC(=O)C1=C(C)NC(C)=C(C(=O)OCC(C)=O)C1c1ccccc1[N+](=O)[O-] (configuration not stated)
A) inactive

Q) Supply outcome value. Item: C[N+](C)(C)CC(O)CC(=O)[O-] (configuration not stated)
A) inactive

Q) Supply outcome value. Item: CC(C)(C)NCC(O)COc1ccccc1OCC1CCCO1 (configuration not stated)
A) inactive

Q) Supply outcome value. Item: `COc1ccc(NS(=O)(=O)c2ccc(N)cc2)nn1`
A) inactive

Q) Supply outcome value. Item: `CCCCCCCCCCCCCCCCCCN(C)C`
A) inactive
